Tested on: rodent lifetime carcinogenesis bioassay, tumor incidence TD50
Assay notes: carcinogenic potency in animals, long-term in vivo studies, CPDB compilation (AID 1745844)
Assay context: rat; strain Fischer 344; females; in feed; site: Zymbal's gland; lesion: squamous-cell carcinoma; dosed 78 weeks; study length 107 weeks
Value kind: TD50

Recorded TD50 of "CCn1c2ccccc2c2cc(N)ccc21" , please. 212 mg/kg/day

----------
System: rodent lifetime carcinogenesis bioassay, tumor incidence TD50
Assay notes: carcinogenic potency in animals, long-term in vivo studies, CPDB compilation (AID 1745844)
Assay context: rat; strain Fischer 344; males; in feed; site: urinary bladder; lesion: papilloma; dosed 104 weeks; study length 104 weeks
Value kind: TD50

Recorded TD50 of "O=C1NS(=O)(=O)c2ccccc21" , please. 54100 mg/kg/day

----------
Test system: rodent lifetime carcinogenesis bioassay, tumor incidence TD50
Assay notes: carcinogenic potency in animals, long-term in vivo studies, CPDB compilation (AID 1745844)
Assay context: monkey; strain Rhesus [Macaca mulatta]; both sexes; in feed; site: cheek pouch; lesion: squamous-cell papilloma; dosed 258 weeks; study length 1281 weeks
Value kind: TD50 (mg/kg/day)
Please state the figure in mg/kg/day; there is no need to write the unit.

Recorded TD50 of "CCOC(N)=O" , please. 75.5

----------
Tested on: rodent lifetime carcinogenesis bioassay, tumor incidence TD50
Assay notes: carcinogenic potency in animals, long-term in vivo studies, CPDB compilation (AID 1745844)
Assay context: rat; strain ACI; females; by gavage; site: kidney; lesion: adenocarcinoma, NOS + tubular-cell adenocarcinoma; dosed 103 weeks; study length 104 weeks
Value kind: TD50 (mg/kg/day)
Please state the figure in mg/kg/day; there is no need to write the unit.

Recorded TD50 of "ClC=C(Cl)Cl" , please. 7800

----------
Tested on: rodent lifetime carcinogenesis bioassay, tumor incidence TD50
Assay notes: carcinogenic potency in animals, long-term in vivo studies, CPDB compilation (AID 1745844)
Assay context: rat; strain F344/DuCrj; males; in drinking water; site: peritoneum; lesion: mesothelioma; dosed 52 weeks; study length 52 weeks
Value kind: TD50 (mg/kg/day)
Please state the figure in mg/kg/day; there is no need to write the unit.

Recorded TD50 of "[O-][Br+2]([O-])O" , please. 25.6

----------
Tested on: rodent lifetime carcinogenesis bioassay, tumor incidence TD50
Assay notes: carcinogenic potency in animals, long-term in vivo studies, CPDB compilation (AID 1745844)
Assay context: mouse; strain Charles River CD1; males; by gavage; site: lung; lesion: alveolar/bronchiolar carcinoma; dosed 78 weeks; study length 78 weeks
Calls of active or inactive are those of the source. The rule behind the calls is not given here.
Value kind: TD50

Recorded TD50 of "C=CC=O" , please. 62.6 mg/kg/day (inactive)

----------
System: rodent lifetime carcinogenesis bioassay, tumor incidence TD50
Assay notes: carcinogenic potency in animals, long-term in vivo studies, CPDB compilation (AID 1745844)
Assay context: mouse; strain B6C3F1; females; inhaled; site: liver; lesion: hepatocellular adenoma + hepatoblastoma + hepatocellular carcinoma; dosed 95 weeks; study length 95 weeks
Value kind: TD50 (mg/kg/day)
Please state the figure in mg/kg/day; there is no need to write the unit.

Recorded TD50 of "FC(F)=C(F)F" , please. 63.3

----------
Tested on: rodent lifetime carcinogenesis bioassay, tumor incidence TD50
Assay notes: carcinogenic potency in animals, long-term in vivo studies, CPDB compilation (AID 1745844)
Assay context: mouse; strain B6C3F1; females; in feed; site: any site (literature study); lesion: several types; types named in the paper; dosed 103 weeks; study length 104 weeks
Activity calls are given as the source filed them. No rule for the calls is given here.
Value kind: TD50

Recorded TD50 of "NC(=O)NN=Cc1ccc([N+](=O)[O-])o1" , please. 66.2 mg/kg/day

Same question, "Cc1noc(NS(=O)(=O)c2ccc(N)cc2)c1C" this time 8180 mg/kg/day

Same question, "Cc1ccc(N=Nc2c(O)ccc3ccccc23)c([N+](=O)[O-])c1" this time 13800 mg/kg/day

Same question, "CNc1ccc(N(CCO)CCO)cc1[N+](=O)[O-]" this time 373 mg/kg/day

Same question, "COC(=O)[C@H]1[C@H]2C[C@@H]3c4[nH]c5cc(OC)ccc5c4CCN3C[C@H]2C[C@@H](OC(=O)c2cc(OC)c(OC)c(OC)c2)[C@@H]1OC" this time 6.42 mg/kg/day

Same question, "COc1ccccc1[N+](=O)[O-]" this time 350 mg/kg/day

Same question, "COc1ccc(N)c(OC)c1" this time 986 mg/kg/day (inactive)

Same question, O=P(OCC(Br)CBr)(OCC(Br)CBr)OCC(Br)CBr (centres undefined) this time 148 mg/kg/day

Same question, "CCn1cc(C(=O)O)c(=O)c2ccc(C)nc21" this time 1690 mg/kg/day

Same question, "O=C(O)c1ccc([N+](=O)[O-])cc1" this time 3160 mg/kg/day (inactive)

Same question, "Nc1ccccc1-c1ccccc1" this time 1880 mg/kg/day

Same question, CCCCCCCC/C=C/CCCCCCCC(=O)OCCOCC(OCCO)C1OCC(OCCO)C1OCCO (centres undefined) this time 42900 mg/kg/day (inactive)

Same question, "CNC[C@H](O)c1cccc(O)c1" this time 911 mg/kg/day (inactive)

Same question, "Nc1ccc(N)cc1" this time 1500 mg/kg/day (inactive)
